src = patent US5422342A

Test system: prolyl hydroxylase (Homo sapiens)
Protocol summary: prolyl hydroxylase enzyme assay with preincubation (suicide inhibition)
Assay type: biochemical
Condition label: concentration which inactivates 50% of the enzyme after one hour; preincubation with iron(II) ions, α-ketoglutarate and ascorbate
The reader will find reported ID50 [60 min; μmol/l] values listed item by item below.

Molecule	Reading unit	ID50 [60 min; μmol/l]
O=C(CNC(=O)C1CCON1C(=O)C(Cc1ccccc1)NC(=O)OCc1ccccc1)OCc1ccc(F)cc1 (stereo not shown)	µmol/L	0.8
N#Cc1ccc(C(=O)CNC(=O)C2CCON2C(=O)C(Cc2ccccc2)NC(=O)OCc2ccccc2)cc1 (stereo not shown)	µmol/L	1.1
O=C(CNC(=O)C1CCON1C(=O)C1Cc2ccccc2CN1C(=O)OCc1ccccc1)OCc1ccccc1 (stereo not shown)	µmol/L	1.5
CC(=O)N1CCCC1C(=O)N1OCCC1C(=O)NCC(=O)OCc1ccccc1 (stereo not shown)	µmol/L	60.0
CC(C)C(NC(=O)OCc1ccccc1)C(=O)N1OCCC1C(=O)NCC(=O)OCc1ccccc1 (stereo not shown)	µmol/L	40.0
O=C(CNC(=O)C1CCON1C(=O)Cc1ccccc1)OCc1ccccc1 (stereo not shown)	µmol/L	1000.0
O=C(CNC(=O)C1CCON1C(=O)Cc1ccccc1)OCc1ccc([N+](=O)[O-])cc1 (stereo not shown)	µmol/L	540.0

---

Test system: prolyl hydroxylase (Homo sapiens, UniProt P13674)
Sequence (P13674 18-534): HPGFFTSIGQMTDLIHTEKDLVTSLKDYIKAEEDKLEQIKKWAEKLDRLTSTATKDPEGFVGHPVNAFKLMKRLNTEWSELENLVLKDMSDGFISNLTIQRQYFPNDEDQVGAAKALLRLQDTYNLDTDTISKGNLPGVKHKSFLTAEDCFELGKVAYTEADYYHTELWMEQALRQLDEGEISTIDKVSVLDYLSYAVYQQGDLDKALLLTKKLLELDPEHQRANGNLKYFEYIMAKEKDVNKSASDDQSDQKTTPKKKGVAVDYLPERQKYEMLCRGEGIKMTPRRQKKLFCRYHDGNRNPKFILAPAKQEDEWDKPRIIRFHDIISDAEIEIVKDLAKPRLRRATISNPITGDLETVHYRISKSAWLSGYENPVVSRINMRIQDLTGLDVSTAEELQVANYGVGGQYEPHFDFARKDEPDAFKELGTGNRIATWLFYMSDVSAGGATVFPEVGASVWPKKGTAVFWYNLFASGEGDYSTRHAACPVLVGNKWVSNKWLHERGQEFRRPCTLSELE
Sequence (P07237 18-508 partner): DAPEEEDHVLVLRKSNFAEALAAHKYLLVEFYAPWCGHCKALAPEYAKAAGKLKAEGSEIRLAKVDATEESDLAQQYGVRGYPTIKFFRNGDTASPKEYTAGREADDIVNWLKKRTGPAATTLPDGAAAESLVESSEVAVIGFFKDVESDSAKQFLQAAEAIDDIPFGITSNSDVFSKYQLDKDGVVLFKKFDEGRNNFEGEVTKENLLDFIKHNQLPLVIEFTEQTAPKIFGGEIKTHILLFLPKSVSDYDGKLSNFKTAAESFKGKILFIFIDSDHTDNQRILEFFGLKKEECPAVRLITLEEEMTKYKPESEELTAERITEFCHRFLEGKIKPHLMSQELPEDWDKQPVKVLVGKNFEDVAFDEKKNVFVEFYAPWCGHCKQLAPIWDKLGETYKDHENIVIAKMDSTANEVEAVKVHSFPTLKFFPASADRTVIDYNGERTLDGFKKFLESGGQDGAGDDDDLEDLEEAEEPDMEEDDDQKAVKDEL
Protocol summary: prolyl hydroxylase enzyme assay with preincubation (suicide inhibition)
Assay type: biochemical
Condition label: concentration which inactivates 50% of the enzyme after one hour; preincubation with iron(II) ions, α-ketoglutarate and ascorbate
Experimental readout: ID50 [60 min; μmol/l] (µmol/L)

Compound	Experimental readout	Bound sign	Quantitative readout
CCN(CC)C(=O)CNC(=O)C1CCON1C(=O)C1CCCN1C(C)=O (stereo not shown)	ID50 [60 min; μmol/l]	=	16900.0
CC(NC(=O)OCc1ccccc1)C(=O)N1OCCC1C(=O)NCC(=O)OCc1ccccc1 (stereo not shown)	ID50 [60 min; μmol/l]	>	10000.0
O=C(NC(Cc1ccccc1)C(=O)N1OCCC1C(=O)NCC(=O)c1ccccc1)OCc1ccccc1 (stereo not shown)	ID50 [60 min; μmol/l]	=	2.4
O=C(CNC(=O)C1CCON1C(=O)C(Cc1ccccc1)NC(=O)OCc1ccccc1)OCc1ccccc1 (stereo not shown)	ID50 [60 min; μmol/l]	=	0.8
O=C(CCc1ccccc1)CNC(=O)C1CCON1C(=O)C(Cc1ccccc1)NC(=O)OCc1ccccc1 (stereo not shown)	ID50 [60 min; μmol/l]	=	3.4
CN(CC(=O)OCc1ccccc1)C(=O)C1CCON1C(=O)C(Cc1ccccc1)NC(=O)OCc1ccccc1 (stereo not shown)	ID50 [60 min; μmol/l]	>	10000.0
O=C(CNC(=O)C1CCON1Cc1ccccc1)OCc1ccccc1 (stereo not shown)	ID50 [60 min; μmol/l]	=	610.0
O=C(O)CCC(NC(=O)OCc1ccccc1)C(=O)N1OCCC1C(=O)NCC(=O)OCc1ccccc1 (stereo not shown)	ID50 [60 min; μmol/l]	=	5000.0
O=C(CNC(=O)C1CCON1C(=O)C(Cc1ccccc1)NC(=O)OCc1ccccc1)OCCc1ccccc1 (stereo not shown)	ID50 [60 min; μmol/l]	=	0.9
O=C(CNC(=O)C1CCON1C(=O)C(CCCCN1C(=O)c2ccccc2C1=O)NC(=O)OCc1ccccc1)OCc1ccccc1 (stereo not shown)	ID50 [60 min; μmol/l]	=	11.0
CC(=O)N1CCCC1C(=O)N1OCCC1C(=O)NCC(=O)NCc1ccccc1 (stereo not shown)	ID50 [60 min; μmol/l]	=	6000.0
CC(=O)N1CCCC1C(=O)N1OCCC1C(=O)NCC(=O)OC(C)(C)C (stereo not shown)	ID50 [60 min; μmol/l]	=	8000.0
O=C(CNC(=O)C1CCON1C(=O)CCc1ccccc1)OCc1ccccc1 (stereo not shown)	ID50 [60 min; μmol/l]	=	2000.0
